assayed.target: Catechol O-methyltransferase (Homo sapiens) (UniProt P21964)
Sequence (P21964 whole entry, looked up): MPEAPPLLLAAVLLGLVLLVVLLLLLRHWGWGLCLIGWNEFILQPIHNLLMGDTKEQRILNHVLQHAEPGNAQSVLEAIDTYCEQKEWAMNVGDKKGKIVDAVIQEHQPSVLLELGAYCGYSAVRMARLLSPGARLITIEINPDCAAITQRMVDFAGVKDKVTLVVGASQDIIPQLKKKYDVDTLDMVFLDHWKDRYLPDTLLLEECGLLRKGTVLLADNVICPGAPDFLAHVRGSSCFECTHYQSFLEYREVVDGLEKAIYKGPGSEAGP
test.description: Confirmatory Screen for Target Class Profiling of Small Molecule Inhibitors of Methyltransferases (AID 1745852)
conditions: MTase-Glo luminescence, SAH detection, recombinant enzyme; measured here: COMT max response; stronger effect = lower value
Some compounds, each annotated with its measured activity.
# unit: % | format: bare number

Guide cases for activity, answers given:
- compound: "C=C1C(=O)OC2/C=C(\\CO)CC/C=C(\\C=O)C(OC)C(OC(=O)C(C)CC)C12 (stereo not given)"
  recorded.number: -88.5
- compound: "CC(C)(C)c1ccc(C(=O)Nc2cc(Cl)c(Br)cc2C(=O)O)cc1"
  recorded.number: -14
- compound: "Cc1c[nH]c2ncnc(N3CCC(CN)(C(=O)Nc4cccc(OC(=O)N(C)C)c4)CC3)c12"
  recorded.number: -12.7
- compound: "COc1ccccc1N1CCN(c2ncnc3n[nH]c(Br)c23)CC1"
  recorded.number: -8.96
- compound: "CC(=O)OC/C(=C/C(=O)O)CC[C@@H]1C(C=O)=CC[C@@H]2C(C)(C)CCC[C@@]12C"
  recorded.number: -75.1
- compound: "CCCCCc1ccc(/C=C/C(=O)Nc2cc(Cl)ccc2C(=O)O)cc1"
  recorded.number: -6.7

Incoming: Record request: activity value, item "Cc1nc(C#Cc2ccnc(Cl)c2)c(C)n1-c1ccc(F)cc1"
Outgoing: -47.3

Incoming: Record request: activity value, item "COc1cccc(-c2cn(-c3ccc(CCN4CCC(O)CC4)cc3)c3ncnc(N)c23)c1"
Outgoing: -79.5

Incoming: Record request: activity value, item "C/C(=N\N=C(N)N)c1cc(NC(=O)CCCCCCCCC(=O)Nc2cc(/C(C)=N/N=C(N)N)cc(/C(C)=N/N=C(N)N)c2)cc(/C(C)=N/N=C(N)N)c1"
Outgoing: -85.9

Incoming: Record request: activity value, item CC12CCC3C1C(c1c(cc(O)c(C(=O)c4ccccc4)c1O)O2)C3(C)C (stereo not given)
Outgoing: -35.5

Incoming: Record request: activity value, item COC(=O)CC1OC(C)C2=C(O)c3c(O)cccc3C(=O)C23OC13 (stereo not given)
Outgoing: -4.94

Incoming: Record request: activity value, item C=C1C(=O)OC[C@@H]1C/C=C(\C)CC1CC(C)C(=O)O1 (stereo not given in full)
Outgoing: -80

Incoming: Record request: activity value, item "C=C1C(=O)O[C@@H]2/C=C(\CO)CC/C=C(/C=O)C[C@@H](O)[C@@H]12"
Outgoing: -63.7

Incoming: Record request: activity value, item "C[C@H](Oc1cc(-c2cnn(C3CCNCC3)c2)cnc1N)c1c(Cl)ccc(F)c1Cl"
Outgoing: -64.7

====

Tested on: HaCat
test.description: Cytotoxic Profiling of Annotated Libraries Using Quantitative High-Throughput Screening (AID 1296008); note: nearly all actives have a fitted effect of over 60% in size
conditions: Five cell lines viability, CellTiter-Glo ATP luminescence, 48-72 h
Inconclusive results are not listed. Activity calls are given as the source filed them. Calls follow the shape of the dose curve; as a rule, active = well fitted inhibition curve with a large enough effect; inconclusive = small, poorly fitted or top-dose-only effect; inactive = flat fitted curve, though single readings scatter.
// classify into True = active, False = inactive

Example results:
- molecule: "Cc1ccc(CNc2ncnc3ccc(-c4ccc(CO)o4)cc23)o1"
  label: "True"
- molecule: "COC1CC/C=C(\\C)C(=O)Nc2cc(O)cc(c2)CC(C)CC(OC)C(O)C(C)/C=C(\\C)C1OC(N)=O (stereo not drawn)"
  label: "True"
- molecule: "C=C1CC[C@@H](O)[C@]2(C)C[C@H]3OC(=O)C(=C)[C@H]3CC12 (stereo partly drawn)"
  label: "False"
- molecule: "O=C(Nc1cc(C(F)(F)F)cc(C(F)(F)F)c1)c1cnc(Cl)nc1C(F)(F)F"
  label: "False"
- molecule: "C/C1=C/CCC2=CC(OC2=O)C(C)(C)/C=C/C1=O (stereo not drawn)"
  label: "True"
- molecule: "NCC(CNc1nc(Nc2cccc(NC(=O)N3CCCC3)c2)ncc1I)C(=O)c1cccs1 (stereo not drawn)"
  label: "False"
- molecule: "CN(C)C(=O)C(=O)c1cn(C)c2cc(Cl)c(C(=O)N3CCC(Cc4ccc(F)cc4)CC3)cc12"
  label: "False"

We next turn to a different molecule, shown below.
Incoming: For "CC[C@H]1OC(=O)[C@H](C)[C@@H](O[C@H]2C[C@@](C)(OC)[C@@H](O)[C@H](C)O2)[C@H](C)[C@@H](O[C@H]2O[C@H](C)C[C@H](N(C)C)[C@H]2O)[C@](C)(O)C[C@@H](C)C(=O)[C@H](C)[C@@H](O)[C@]1(C)O" , which call appears in the assay record?
Outgoing: False
